system.tested: CK1α (Homo sapiens)
Construct: HEK293 clonal lines with CRISPR KI HiBiT tag on CSNK1A1
Sequence (P48729 whole entry): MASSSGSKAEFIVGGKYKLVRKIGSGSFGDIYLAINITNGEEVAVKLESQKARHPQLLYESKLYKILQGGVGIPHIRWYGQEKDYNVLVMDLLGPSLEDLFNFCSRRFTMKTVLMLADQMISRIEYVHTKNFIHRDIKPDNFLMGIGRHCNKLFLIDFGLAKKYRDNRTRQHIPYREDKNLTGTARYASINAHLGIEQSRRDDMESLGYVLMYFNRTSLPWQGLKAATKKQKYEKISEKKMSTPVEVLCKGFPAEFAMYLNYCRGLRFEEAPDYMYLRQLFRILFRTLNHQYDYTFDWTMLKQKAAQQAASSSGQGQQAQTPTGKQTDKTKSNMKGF
Sequence (Q96SW2 whole entry, further chain): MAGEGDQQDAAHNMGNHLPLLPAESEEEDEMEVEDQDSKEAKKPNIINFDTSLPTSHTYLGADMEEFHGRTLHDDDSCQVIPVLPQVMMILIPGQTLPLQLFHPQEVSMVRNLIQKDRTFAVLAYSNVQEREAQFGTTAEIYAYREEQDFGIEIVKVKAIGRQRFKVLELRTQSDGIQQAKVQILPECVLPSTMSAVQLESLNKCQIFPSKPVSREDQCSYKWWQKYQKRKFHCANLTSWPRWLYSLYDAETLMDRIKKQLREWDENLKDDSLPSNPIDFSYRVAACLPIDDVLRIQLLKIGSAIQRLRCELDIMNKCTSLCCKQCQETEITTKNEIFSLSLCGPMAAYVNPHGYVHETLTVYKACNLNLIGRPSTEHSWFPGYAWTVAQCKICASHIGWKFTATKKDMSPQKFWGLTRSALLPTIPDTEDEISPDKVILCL
Sequence (Q16531 2-1140 partner limits assumed): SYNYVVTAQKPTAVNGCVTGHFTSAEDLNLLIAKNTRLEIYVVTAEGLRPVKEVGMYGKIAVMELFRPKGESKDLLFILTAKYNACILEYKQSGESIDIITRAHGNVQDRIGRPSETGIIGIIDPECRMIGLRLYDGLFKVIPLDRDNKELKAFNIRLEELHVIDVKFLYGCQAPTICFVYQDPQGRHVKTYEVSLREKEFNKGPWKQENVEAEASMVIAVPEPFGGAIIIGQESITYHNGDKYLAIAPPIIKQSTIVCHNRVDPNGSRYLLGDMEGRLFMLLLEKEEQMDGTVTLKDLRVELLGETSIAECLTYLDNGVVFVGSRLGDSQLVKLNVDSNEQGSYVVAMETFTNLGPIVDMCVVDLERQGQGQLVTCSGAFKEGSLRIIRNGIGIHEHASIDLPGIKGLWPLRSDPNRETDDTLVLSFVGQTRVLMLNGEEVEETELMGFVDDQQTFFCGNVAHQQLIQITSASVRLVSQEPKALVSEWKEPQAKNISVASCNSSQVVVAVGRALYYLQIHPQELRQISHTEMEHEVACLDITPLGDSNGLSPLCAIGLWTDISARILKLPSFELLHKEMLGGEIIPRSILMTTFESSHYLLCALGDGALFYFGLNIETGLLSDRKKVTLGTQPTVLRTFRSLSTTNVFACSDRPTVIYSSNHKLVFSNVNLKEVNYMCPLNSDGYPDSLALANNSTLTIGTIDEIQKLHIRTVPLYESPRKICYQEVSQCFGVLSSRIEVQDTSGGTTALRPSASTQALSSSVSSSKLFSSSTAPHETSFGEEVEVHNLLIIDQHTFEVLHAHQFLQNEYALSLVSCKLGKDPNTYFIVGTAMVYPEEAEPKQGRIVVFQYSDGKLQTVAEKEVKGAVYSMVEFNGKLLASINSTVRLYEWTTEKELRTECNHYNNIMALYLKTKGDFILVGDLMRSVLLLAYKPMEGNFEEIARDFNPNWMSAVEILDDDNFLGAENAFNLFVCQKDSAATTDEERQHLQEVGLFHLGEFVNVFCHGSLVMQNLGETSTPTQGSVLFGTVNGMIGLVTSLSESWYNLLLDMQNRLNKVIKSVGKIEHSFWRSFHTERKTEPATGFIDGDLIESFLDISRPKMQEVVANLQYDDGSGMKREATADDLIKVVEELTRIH
assay.procedure: CK1α NanoBit Assay (HiBiT-tagged CSNK1A1, HEK293 clonal lines)
Type: cell-based
experimental.parameters: HEK293 HiBiT-CSNK1A1/LgBiT cells, 24 h incubation
I'd be grateful if you could share measured DC50 for these entries.

These solved cases illustrate the format of a correct answer.
molecule	value.measured
O=C1CCC(N2Cc3cc(NC(=O)N4CC(c5cccc(F)c5)C4)ccc3C2=O)C(=O)N1 (centres unmarked)	0.1 to 1 µM
O=C1CCC(N2Cc3cc(NC(=O)N4CCC5(CCC5)C4)ccc3C2=O)C(=O)N1 (centres unmarked)	< 0.1 µM
CC(C)(C)c1ccc2c(c1)CN(C(=O)Nc1ccc3c(c1)CN(C1CCC(=O)NC1=O)C3=O)CC2 (centres unmarked)	< 0.1 µM

Please supply DC50 for each of the following items, keeping them in order.
1. C[C@@H]1CCN(C(=O)Nc2ccc3c(c2)CN(C2CCC(=O)NC2=O)C3=O)[C@H](C)C1 (some centres unmarked)
2. O=C1CCC(N2Cc3cc(NC(=O)N4CCC(c5cnccn5)C4)ccc3C2=O)C(=O)N1 (centres unmarked)
3. CCOC[C@@H]1Cc2ccccc2N1C(=O)Nc1ccc2c(c1)CN(C1CCC(=O)NC1=O)C2=O (some centres unmarked)
4. O=C1CCC(N2Cc3cc(NC(=O)N4Cc5ccc(C(F)F)cc5C4)ccc3C2=O)C(=O)N1 (centres unmarked)
5. C[C@H]1c2ccccc2[C@H](C)N1C(=O)Nc1ccc2c(c1)CN(C1CCC(=O)NC1=O)C2=O (some centres unmarked)

result:
1. > 1 µM
2. > 1 µM
3. < 0.1 µM
4. < 0.1 µM
5. < 0.1 µM
